Taken from the supplement of paper PMC10724198.

System: Saccharomyces cerevisiae;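 note: PSI is a weighted mean of sequencing reads over stability bins, variants kept only with over 10 reads, mCherry proximal and sfGFP distal, peptide attached via GGGS linker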
Protocol Details: protein stability index of tFT-peptide fusion (C-terminal peptide) (PSI (0-1 scale)); higher = more stable (slower turnover)
Condition Context: genetic background: wild type; temperature: 30 C
// values below are reported protein stability index
// no unit string in output, number only

Solved entries:
[[record]]
entry_sequence = "EWLITLRKCGVA"
quantity_measured = "protein stability index"
readout_value = 0.463

[[record]]
entry_sequence = "RRGLHWQAVCRY"
quantity_measured = "protein stability index"
readout_value = 0.733

[[record]]
entry_sequence = "RAFFLLYCTLWA"
quantity_measured = "protein stability index"
readout_value = 0.206

[[record]]
entry_sequence = "CGVSPPHANLVS"
quantity_measured = "protein stability index"
readout_value = 0.569

[[record]]
entry_sequence = "VGWAVNGSMVVG"
quantity_measured = "protein stability index"
readout_value = 0.662


input: I am curious: what protein stability index value has been reported for `LRSCLARGLFFG` ?
output: 0.743

input: I am curious: what protein stability index value has been reported for `HLIRRGGSQTWT` ?
output: 0.713

input: I am curious: what protein stability index value has been reported for `SKERLKSEKMKK` ?
output: 0.745

input: I am curious: what protein stability index value has been reported for `LVCLVASCVRWL` ?
output: 0.357

input: I am curious: what protein stability index value has been reported for `PPPSHLHLPSPA` ?
output: 0.53
